# Tgt: Cytochrome P450 2C19 (Homo sapiens)
# Assay: blockers of cytochrome P450 2C19 activity – biochemical, luminescence, ADME assay, primary screen (AID 778);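 also: plate controls were negative control wells for no effect and 2.5 mM tranylcypromine positive control for full effect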
# Study Conditions: CYP2C19 Supersomes, luciferin-H EGE luminescence, 30 min; at 5 µM
The campaign covered roughly 96,000 compounds. About 20,000 (21%) were called active.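 The calls were made as follows: active = CYP2C19 inhibition above a set limit at 5 µM in the primary screen (cut at about 50% in these data); inactive = the rest.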 A selection follows.
Return exactly one item of YES (active), NO (inactive)

CN1CCN(S(=O)(=O)c2ccc(NC(=O)c3ccco3)cc2)CC1 = NO
COc1ccc(S(=O)(=O)N2CCN(C(=O)c3cccs3)CC2)cc1OC = NO
COc1ccc(N(CC(=O)NC2CCCCC2)S(=O)(=O)c2c(C)[nH]c(=O)[nH]c2=O)cc1 = NO

Assay result, entry CCCS(=O)(=O)N1CCN(C(=O)c2cccs2)CC1 — outcome?
NO

Hey, what did the test say about Oc1ccccc1CNc1ncc(Br)cc1Br ?
NO

Dear colleague, could you share the recorded outcome for CCN(CC)CCN1C(=O)C(=O)/C(=C(/O)c2cnn(-c3ccccc3)c2C)C1c1cccs1 (stereo not given) when you have a moment?
NO

Name the outcome recorded for COc1c(O)cccc1-c1nnn(CCC(=O)OCC(=O)c2ccccc2)n1 in the assay.
NO

// return assay outcome for CC1CC(C)CN(CC(=O)N2c3ccccc3CCc3ccccc32)C1 (stereo not given)
NO

Tell me the recorded outcome of this test for Cc1onc(-c2ccccc2Cl)c1C(=O)OCC(=O)c1ccccc1 .
YES

Outcome logged for COc1cccc(-n2c(SCC(=O)NC3CCCCC3)nc3n[nH]c(C)c3c2=N)c1 in this assay:
YES

---

# Tgt: Cytochrome P450 2C19 (Homo sapiens) (UniProt P33261)
# Sequence (P33261 whole entry, looked up): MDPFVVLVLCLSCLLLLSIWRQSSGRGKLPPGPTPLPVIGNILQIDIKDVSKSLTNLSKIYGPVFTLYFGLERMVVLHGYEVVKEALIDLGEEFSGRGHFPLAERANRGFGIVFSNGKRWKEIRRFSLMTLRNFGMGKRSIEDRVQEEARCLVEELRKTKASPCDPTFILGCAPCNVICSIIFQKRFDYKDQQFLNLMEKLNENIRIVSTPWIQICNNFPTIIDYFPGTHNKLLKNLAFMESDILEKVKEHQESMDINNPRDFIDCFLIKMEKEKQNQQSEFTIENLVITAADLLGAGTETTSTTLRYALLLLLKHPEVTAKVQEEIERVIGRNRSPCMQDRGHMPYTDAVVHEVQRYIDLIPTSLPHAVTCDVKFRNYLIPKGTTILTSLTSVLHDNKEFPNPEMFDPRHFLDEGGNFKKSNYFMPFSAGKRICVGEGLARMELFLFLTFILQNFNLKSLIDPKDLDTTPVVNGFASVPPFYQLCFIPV
# Assay: blockers of cytochrome P450 2C19 activity – biochemical, luminescence, ADME assay, primary screen (AID 778)
# Study Conditions: CYP2C19 Supersomes, luciferin-H EGE luminescence, 30 min; at 5 µM
Hit rate of the full screen: of about 96,000 compounds, about 20,000 (21%) were called active.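 Rule for the calls: active = CYP2C19 inhibition above a set limit at 5 µM in the primary screen (cut at about 50% in these data); inactive = the rest.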 The list is a sample of the results.
Response enum: active, inactive

Previously resolved entries follow.
O=C(CSc1nnnn1C1CCCC1)Nc1ccc2c(c1)OCCO2 = active
O=C1c2ccccc2C(=O)N1CCc1nn[nH]n1 = inactive
Cc1nn(-c2ncc(C(F)(F)F)cc2Cl)c(=O)n1-c1ccccc1 = inactive

Recorded test call requested for Cc1csc(OCC(=O)Nc2ccc(C)c(C)c2)n1
inactive

Per the assay record, what outcome was assigned to O=C(CSc1nc2ncccc2[nH]1)Nc1ccc2c(c1)OCCO2 ?
active

Record request — test call for CCn1nc(C(=O)OCC(=O)N2c3ccccc3CC2C)c2ccccc2c1=O (stereo not drawn)
active

---

# Tgt: Cytochrome P450 2C19 (Homo sapiens)
# Assay: blockers of cytochrome P450 2C19 activity – biochemical, luminescence, ADME assay, primary screen (AID 778)
# Study Conditions: CYP2C19 Supersomes, luciferin-H EGE luminescence, 30 min; at 5 µM
The campaign covered roughly 96,000 compounds. About 20,000 (21%) were called active.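 Rule for the calls: active = CYP2C19 inhibition above a set limit at 5 µM in the primary screen (cut at about 50% in these data); inactive = the rest.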 These entries were drawn from the full list.
Hello, when you answer, please use one of the following outcomes: Y = active, N = inactive

Illustrative cases are given below, each with its answer.
Cc1nnc(OCC(=O)NCCC2=CCCCC2)c2ccccc12 = Y
CC(C)N(C(=O)Cn1c(SCC(=O)N2CCN(c3ccccc3)CC2)nc2ccccc21)C(C)C = N

# input for lookup
How was Cc1cc(C(F)F)n2nc(C(=O)Nc3ccc(S(=O)(=O)NC45CC6CC(CC(C6)C4)C5)cc3)nc2n1 classified in this test?
N

---

The following compounds are shown together with reported inhibition values.
# Tgt: Cytochrome P450 2C19 (Homo sapiens)
# Assay: blockers of cytochrome P450 2C19 activity – biochemical, luminescence, ADME assay, primary screen (AID 778)
# Study Conditions: CYP2C19 Supersomes, luciferin-H EGE luminescence, 30 min; at 5 µM; active compounds read high
About 20,000 (21%) of roughly 96,000 compounds were called active. Not all results are given here.
State just the number; it will be interpreted in %.

CC1CCCC(NC(=O)CN2CCN(Cc3ccc(Cl)cc3)C2=O)C1C (stereo not drawn) = 18.3
CCN(CC)CCNC(=O)CCCCCn1c(=O)[nH]c2cc(C(=O)OC)ccc2c1=O = 0
COc1cc(/C=C(/NC(=O)c2ccccc2)C(=O)Nc2cccc(O)c2)c([N+](=O)[O-])cc1OC = 6.1
CC1CCCC(NC(=O)CSc2nccn2C)C1C (stereo not drawn) = 97.2
CCC(CC)c1nnc(NS(=O)(=O)Cc2ccccc2)s1 = -10.5

Field request: inhibition | item: CC12C(=O)N(n3cnnc3)C(=O)C1C1C=CC2C1 (stereo not drawn)
-13.7

Name the recorded inhibition for O=C(/C=C/c1ccc(Cl)cc1Cl)NCc1ccco1 .
31.8

Query: inhibition; subject: Cn1c(=O)[nH]c(=O)c2c1nc(N1CCCCCC1)n2CC(=O)c1ccccc1
4

---

# Tgt: Cytochrome P450 2C19 (Homo sapiens)
# Assay: blockers of cytochrome P450 2C19 activity – biochemical, luminescence, ADME assay, primary screen (AID 778);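 also: plate controls were negative control wells for no effect and 2.5 mM tranylcypromine positive control for full effect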
# Study Conditions: CYP2C19 Supersomes, luciferin-H EGE luminescence, 30 min; at 5 µM; active compounds read high
Hit rate of the full screen: of about 96,000 compounds, about 20,000 (21%) were called active. Not all results are given here. Residues, ends and D or L forms follow the SMILES beside them. *: point of attachment. Bz = O=C(c1ccccc1)*
Observable: inhibition

Example entries and their recorded answers appear below.
Clc1ccc(CSc2nnc([C@@H]3CCCN3)o2)cc1 = 97.9% (active)
CCC(=O)Nc1nc2ccccc2n1Cc1ccccc1C = 49.7% (inactive)
C=CCNc1nc(N)c(C(=C(C#N)C#N)c2ccccc2)s1 = 21.5% (inactive)
S=C1SCN(CCN2CCOCC2)CN1Cc1ccccc1 = 25.3% (inactive)
O=C(NC(Cc1ccccc1)C(=O)N1CCCC1C(=O)O)c1ccccc1 (stereo not drawn) (Bz-Phe-Pro-OH; configuration not given here) = -4.1% (inactive)
Cc1ccc(-c2noc(-c3ccccc3C(=O)NCC3CCCO3)n2)cc1 (centres undefined) = 39.8% (inactive)
Cc1ccc(-c2nn(-c3ccccc3)cc2/C=N/NC(=O)c2ccc3c(c2)OCO3)cc1 = 49.9% (inactive)
Cc1ccc(S(=O)(=O)N2CCOCC2)cc1C(=O)NCc1ccc(F)cc1 = 15.3% (inactive)
COCc1nc2ccccc2n1Cc1ccccc1Br = 55.6% (active)
CCN(CC)S(=O)(=O)c1ccc(N2CCOCC2)c(C(=O)O)c1 = 9.1% (inactive)

Could you tell me which inhibition is on file for CCOC(=O)c1[nH]c2c(c1C)C(=O)CC(c1ccc(N(C)C)cc1)C2 (centres undefined) ?
6.7% (inactive)

Item under review: Cc1ccc(S(=O)(=O)N(CC(=O)NCCSC2CCCCC2)c2ccccc2F)cc1 . Reported inhibition?
-4.4% (inactive)

// query inhibition value for entry Cc1ccc(C)n1C(Cc1ccccc1)C(=O)O (centres undefined)
8.1% (inactive)

Returns the measured inhibition for the input compound. Input: CN(C)c1ccc(NC(=S)N(CCc2ccccc2)C2CC(=O)N(c3c(Cl)cccc3Cl)C2=O)cc1 (centres undefined)
13.4% (inactive)

---

# Tgt: Cytochrome P450 2C19 (Homo sapiens)
# Assay: blockers of cytochrome P450 2C19 activity – biochemical, luminescence, ADME assay, primary screen (AID 778);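 also: plate controls were negative control wells for no effect and 2.5 mM tranylcypromine positive control for full effect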
# Study Conditions: CYP2C19 Supersomes, luciferin-H EGE luminescence, 30 min; at 5 µM
The whole screen tested about 96,000 compounds, of which about 20,000 (21%) were called active.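 How the source made its calls: active means CYP2C19 inhibition above a set limit at 5 µM in the primary screen (cut at about 50% in these data); inactive means the rest.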 Only a sample is shown.
Would you mind answering with one of these outcomes? active, inactive

Outcome? CC1CN(c2cc(=O)n(-c3cccc(Br)c3)c(=O)[nH]2)CC(C)O1 (stereo unspecified)
inactive

---

In this section we review reported inhibition values for a set of compounds.
# Tgt: Cytochrome P450 2C19 (Homo sapiens) (UniProt P33261)
# Assay: blockers of cytochrome P450 2C19 activity – biochemical, luminescence, ADME assay, primary screen (AID 778);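 also: plate controls were negative control wells for no effect and 2.5 mM tranylcypromine positive control for full effect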
# Study Conditions: CYP2C19 Supersomes, luciferin-H EGE luminescence, 30 min; at 5 µM; active compounds read high
The campaign covered roughly 96,000 compounds. About 20,000 (21%) were called active. These entries were drawn from the full list.
Entry rule: numbers only, all in %.

Some entries whose results are on file:
Cc1noc(C)c1S(=O)(=O)N1CCCC(C(=O)Nc2nccs2)C1 (configuration not stated) = 78.8
CCOc1ccccc1NC(=O)C1CCN(S(=O)(=O)c2c(C)nn(C)c2C)CC1 = 44.7
COc1ccccc1NC(=O)c1ccc2nc(N3C(=O)CCC3=O)sc2c1 = 13.6
Nn1c(Cc2cccc3ccccc23)nnc1SCC(=O)N1CC(=O)Nc2ccccc21 = -8.7
CC(C)OCCCNC(=O)C1CC(=O)N(C2CCCCCCC2)C1 (configuration not stated) = -8.7

Which measured inhibition belongs to Cc1ccc(NC(=O)C2CCCN(S(=O)(=O)c3c(C)noc3C)C2)c(C)c1 (configuration not stated) , tested on Cytochrome P450 2C19 (Homo sapiens) (UniProt P33261)?
11.2

Recorded inhibition for c1ccc(-n2ncc(-c3nn[nH]n3)n2)cc1 with Cytochrome P450 2C19 (Homo sapiens) (UniProt P33261), please?
31.3

Form field: inhibition recorded for CCCCCn1c(SCCC(C)C)nc2c1c(=O)[nH]c(=O)n2C with Cytochrome P450 2C19 (Homo sapiens) (UniProt P33261) (enter value)
8.6

Param readout = inhibition; param system = Cytochrome P450 2C19 (Homo sapiens) (UniProt P33261); param query = COc1ccc(-n2nc3c(c2NC(=O)Cc2cccc(C)c2)CS(=O)C3)cc1 (configuration not stated) ; response: value
76.9

# returns recorded inhibition (system: Cytochrome P450 2C19 (Homo sapiens) (UniProt P33261)) for COc1cc2cc(CN(CCN3CCCC3)C(=O)Nc3ccccc3Cl)c(=O)[nH]c2cc1OC
7.9
